Could you please report measured Kd for the items listed next?
# assay-system: hBChE (Homo sapiens)
# Sequence (P06276 29-602): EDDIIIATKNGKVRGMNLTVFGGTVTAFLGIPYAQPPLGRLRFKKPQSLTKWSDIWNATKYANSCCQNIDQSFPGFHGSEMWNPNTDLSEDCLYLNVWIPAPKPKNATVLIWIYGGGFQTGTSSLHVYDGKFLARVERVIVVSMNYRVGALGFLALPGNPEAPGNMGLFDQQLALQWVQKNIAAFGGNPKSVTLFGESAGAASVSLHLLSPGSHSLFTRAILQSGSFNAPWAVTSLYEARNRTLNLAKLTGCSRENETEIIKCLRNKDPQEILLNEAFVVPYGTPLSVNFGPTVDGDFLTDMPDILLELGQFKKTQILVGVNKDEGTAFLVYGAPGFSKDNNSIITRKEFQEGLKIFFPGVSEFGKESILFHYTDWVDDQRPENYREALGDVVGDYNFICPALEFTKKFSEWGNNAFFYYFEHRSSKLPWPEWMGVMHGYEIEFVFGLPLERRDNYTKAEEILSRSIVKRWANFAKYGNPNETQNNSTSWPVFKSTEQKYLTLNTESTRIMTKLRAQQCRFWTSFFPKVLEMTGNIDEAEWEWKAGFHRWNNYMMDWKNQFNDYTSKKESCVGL
# assay-procedure: Carbamoylation kinetics on hBChE (time-dependent inhibition, Kc and k3)
# Format: biochemical
# condition-description: carbamoylation, pre-equilibrium constant
Output should be the measured figure followed by the unit it is expressed in.

For each of the compounds below, note its Kd.
1. CN1c2ccc(OC(=O)NCCCCCCn3ccnc3)cc2CN2CCc3ccccc3C21 (stereo not shown) [Compound 19n]
2. CN1c2ccc(OC(=O)NCCCCCCN3CCN(C(=O)OC(C)(C)C)CC3)cc2CN2CCc3ccccc3C21 (stereo not shown) [Compound 19q]
3. CN1c2ccc(OC(=O)NCCCCCCN3CCOCC3)cc2CN2CCc3ccccc3C21 (stereo not shown) [Compound 19d]
4. CN1c2ccc(OC(=O)NCCCCCCn3cnc4ccccc43)cc2CN2CCc3ccccc3C21 (stereo not shown) [Compound 19m]

13.1 nM
1550 nM
202 nM
7.7 nM

Origin of values: patent EP3683219A1
